target: rabbit uterus cytosol progesterone receptor (Oryctolagus cuniculus, UniProt P06186); construct: One ml portions of the supernatant (rabbit uterus cytosol) were pipetted into small centrifuge tubes of glass; from tissue; host or cells: uterus cytosol (105,000×g supernatant) of female rabbits pretreated with polyestradiol phosphate; assay: Relative affinity to rabbit uterus cytosol progesterone receptor (3H-progesterone competition); format: binding; conditions: compared to progesterone; 50% competition with 3H-progesterone; 16-18 hours at 4° C.
Sequence (P06186 whole entry): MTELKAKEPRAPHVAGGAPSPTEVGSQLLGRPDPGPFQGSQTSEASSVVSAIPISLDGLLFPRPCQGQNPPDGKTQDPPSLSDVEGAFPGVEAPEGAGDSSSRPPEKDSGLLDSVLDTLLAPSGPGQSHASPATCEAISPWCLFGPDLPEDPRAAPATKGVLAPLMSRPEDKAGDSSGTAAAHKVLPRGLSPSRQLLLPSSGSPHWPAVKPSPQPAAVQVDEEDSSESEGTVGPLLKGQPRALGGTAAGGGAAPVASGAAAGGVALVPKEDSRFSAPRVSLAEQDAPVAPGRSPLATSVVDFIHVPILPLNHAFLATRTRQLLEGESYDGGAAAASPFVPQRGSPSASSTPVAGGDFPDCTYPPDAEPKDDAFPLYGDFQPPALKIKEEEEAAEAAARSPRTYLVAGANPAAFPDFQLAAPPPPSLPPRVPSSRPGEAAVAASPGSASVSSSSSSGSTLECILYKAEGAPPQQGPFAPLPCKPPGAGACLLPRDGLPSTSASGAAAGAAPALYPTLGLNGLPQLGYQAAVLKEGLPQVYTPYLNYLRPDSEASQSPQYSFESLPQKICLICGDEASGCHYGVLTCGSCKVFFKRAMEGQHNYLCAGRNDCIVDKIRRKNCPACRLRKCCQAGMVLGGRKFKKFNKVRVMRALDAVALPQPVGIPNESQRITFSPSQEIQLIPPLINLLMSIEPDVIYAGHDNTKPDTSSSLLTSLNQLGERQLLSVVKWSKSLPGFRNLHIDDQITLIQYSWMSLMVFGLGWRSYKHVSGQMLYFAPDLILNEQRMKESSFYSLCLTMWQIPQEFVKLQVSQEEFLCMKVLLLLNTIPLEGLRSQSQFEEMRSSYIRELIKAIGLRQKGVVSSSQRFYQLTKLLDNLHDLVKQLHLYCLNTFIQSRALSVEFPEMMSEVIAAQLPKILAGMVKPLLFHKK
recordedMetric: relative binding affinity (RBA)

- chemSmiles: "CC(=O)[C@@]1(OC(=O)CCCOC(=O)c2ccc(C)c(N(CCCl)CCCl)c2)CC[C@H]2[C@@H]3CCC4=CC(=O)CC[C@]4(C)[C@H]3CC[C@@]21C"
  relative binding affinity (RBA): "0.9%"
- chemSmiles: "CC(=O)[C@@]1(OC(=O)COC(=O)Nc2ccc(N(CCCl)CCCl)cc2)CC[C@H]2[C@@H]3CCC4=CC(=O)CC[C@]4(C)[C@H]3CC[C@@]21C"
  relative binding affinity (RBA): "15.8%"

Now for the molecule whose relative binding affinity (RBA) we want.
molecule CC(=O)[C@@]1(OC(=O)COC(=O)Cc2ccc(N(CCCl)CCCl)cc2)CC[C@H]2[C@@H]3CCC4=CC(=O)CC[C@]4(C)[C@H]3CC[C@@]21C , relative binding affinity (RBA) observed: 6.6%

====

We begin with a simple list: items and their reported selectivity ratio.
test: Walker carcinosarcoma 256 tumour growth inhibition in rats; format: in vivo, Sprague-Dawley rats; details: rat, in vivo, po, daily p.o. for 5 days, read-out: T.I. (LD50/ED50)

Example entries and their recorded answers appear below.
- chemSmiles: "CC(=O)[C@@]1(OC(=O)COC(=O)CCCc2ccc(N(CCCl)CCCl)cc2)CC[C@H]2[C@@H]3CCC4=CC(=O)CC[C@]4(C)[C@H]3CC[C@@]21C"
  selectivity ratio: "> 83"
- chemSmiles: "CC(=O)[C@@]1(OC(=O)COC(=O)Cc2ccc(N(CCCl)CCCl)cc2)CC[C@H]2[C@@H]3CCC4=CC(=O)CC[C@]4(C)[C@H]3CC[C@@]21C"
  selectivity ratio: "> 31"

Now for the compound whose selectivity ratio we want.
compound CC(=O)[C@@]1(OC(=O)COC(=O)c2ccc(C)c(N(CCCl)CCCl)c2)CC[C@H]2[C@@H]3CCC4=CC(=O)CC[C@]4(C)[C@H]3CC[C@@]21C , selectivity ratio observed: > 15

====

experiment: Walker carcinosarcoma 256 tumour growth inhibition in rats; assay type: in vivo, Sprague-Dawley rats; conditions: rat, in vivo, po, daily p.o. for 5 days, dose causing 50 percent lethality
recordedMetric: LD50

Example entries and their recorded answers appear below.
- chemSmiles: "CC(=O)[C@@]1(OC(=O)COC(=O)c2ccc(C)c(N(CCCl)CCCl)c2)CC[C@H]2[C@@H]3CCC4=CC(=O)CC[C@]4(C)[C@H]3CC[C@@]21C"
  recordedMetric: "LD50"
  endpointResult: "> 250 mg/kg"
- chemSmiles: "CC(=O)[C@@]1(OC(=O)COC(=O)CCCc2ccc(N(CCCl)CCCl)cc2)CC[C@H]2[C@@H]3CCC4=CC(=O)CC[C@]4(C)[C@H]3CC[C@@]21C"
  recordedMetric: "LD50"
  endpointResult: "> 250 mg/kg"

Now for the compound whose LD50 we want.
compound CC(=O)[C@@]1(OC(=O)COC(=O)Cc2ccc(N(CCCl)CCCl)cc2)CC[C@H]2[C@@H]3CCC4=CC(=O)CC[C@]4(C)[C@H]3CC[C@@]21C , LD50 observed: > 250 mg/kg
